Origin of measurements: patent US20110177071A1

Each record here notes measured Kd.
- ASSAY_TARGET: T1, human CD80-murine Ig fusion protein (human)
- T1 construct: Bought (Ancell #510-820); also called hCD80-mIg; human CD80-murine IgG
- T1 chain: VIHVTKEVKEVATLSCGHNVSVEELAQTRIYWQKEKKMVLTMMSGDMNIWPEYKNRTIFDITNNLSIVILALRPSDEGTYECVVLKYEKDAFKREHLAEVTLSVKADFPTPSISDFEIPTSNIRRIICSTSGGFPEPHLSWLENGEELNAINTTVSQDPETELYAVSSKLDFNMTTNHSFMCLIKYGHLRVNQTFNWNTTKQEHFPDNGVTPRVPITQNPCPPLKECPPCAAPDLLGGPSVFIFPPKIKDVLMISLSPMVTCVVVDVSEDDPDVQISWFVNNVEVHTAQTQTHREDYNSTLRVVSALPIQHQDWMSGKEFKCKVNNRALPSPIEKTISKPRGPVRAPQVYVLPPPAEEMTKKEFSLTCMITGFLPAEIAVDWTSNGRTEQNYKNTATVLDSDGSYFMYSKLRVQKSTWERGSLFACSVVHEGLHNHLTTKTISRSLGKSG
- EXPERIMENT_DESCRIPTION: SPR Biacore, hCD80-mIg captured

D3-70-IgG2 (Fc fusion) MHVAQPAVVLASSRGIASFVCEYESPGKANEVRVTVLRQADSQVTEVCAMTYMKGNELTFLDDPSCTGTFSGNQVNLTIQGLRAMDTGLYICKVELMYPPPYYEGIGNGTQIYVIDPEPCPDSDERKCCVECPPCPAPPVAGPSVFLFPPKPKDTLMISRTPEVTCVVVDVSHEDPEVQFNWYVDGVEVHNAKTKPREEQFNSTFRVVSVLTVVHQDWLNGKEYKCKVSNKGLPAPIEKTISKTKGQPREPQVYTLPPSREEMTKNQVSLTCLVKGFYPSDIAVEWESNGQPENNYKTTPPMLDSDGSFFLYSKLTVDKSRWQQGNVFSCSVMHEALHNHYTQKSLSLSPG | < 0.439 nM
D3-74-IgG2 (Fc fusion) MHVAQPAVVLASSRGIASFVCEYASPGKANEIRVTVLRQADSQVTEVCAMTYMKGNELTFLDDPICTGTFSGNQVNLTIQGLRAMDTGLYICKVELMYPPPYYEGIGNGTQIYVIDPEPCPDSDERKCCVECPPCPAPPVAGPSVFLFPPKPKDTLMISRTPEVTCVVVDVSHEDPEVQFNWYVDGVEVHNAKTKPREEQFNSTFRVVSVLTVVHQDWLNGKEYKCKVSNKGLPAPIEKTISKTKGQPREPQVYTLPPSREEMTKNQVSLTCLVKGFYPSDIAVEWESNGQPENNYKTTPPMLDSDGSFFLYSKLTVDKSRWQQGNVFSCSVMHEALHNHYTQKSLSLSPG | < 0.439 nM
D3-25-IgG2 (Fc fusion) MHVAQPAVVLASSRGIASFVCEYESPGKANEIRVTVLRQAGSQVTEVCAMTYMKGNELTFLDDPSCTGTFSGNQVNLTIQGLRAADTGLYICKVELMYPPPYYLGIGNGTQIYVIDPEPCPDSDERKCCVECPPCPAPPVAGPSVFLFPPKPKDTLMISRTPEVTCVVVDVSHEDPEVQFNWYVDGVEVHNAKTKPREEQFNSTFRVVSVLTVVHQDWLNGKEYKCKVSNKGLPAPIEKTISKTKGQPREPQVYTLPPSREEMTKNQVSLTCLVKGFYPSDIAVEWESNGQPENNYKTTPPMLDSDGSFFLYSKLTVDKSRWQQGNVFSCSVMHEALHNHYTQKSLSLSPG | 0.439 to 1.75 nM

Moving on to another binder below.
Q: Record request: Kd value, item D3-11-IgG2 (Fc fusion) MHVAQPAVVLASSRGIASFVCEYESPGKANEIRVTVLRQAGSQVTEVCAMTYMKGDELTFLDDPSCTGTFSGNQVNLTIQGLRAMDTGLYICKVELMYPPPYYLGFGNGTQIYVIDPEPCPDSDERKCCVECPPCPAPPVAGPSVFLFPPKPKDTLMISRTPEVTCVVVDVSHEDPEVQFNWYVDGVEVHNAKTKPREEQFNSTFRVVSVLTVVHQDWLNGKEYKCKVSNKGLPAPIEKTISKTKGQPREPQVYTLPPSREEMTKNQVSLTCLVKGFYPSDIAVEWESNGQPENNYKTTPPMLDSDGSFFLYSKLTVDKSRWQQGNVFSCSVMHEALHNHYTQKSLSLSPG
Result: 0.439 to 1.75 nM
